Target: Neu5Ac(a2-6)Gal(b1-4)GlcNAc(b1-2)Man(a1-6)[Man(a1-3)]Man(b1-4)GlcNAc(b1-4)GlcNAc
Experiment: glycan array binding signal (z-score within array); higher = stronger binding
Settings: glycan notation: IUPAC condensed, linker removed
About 410 targets per protein were measured; listed, in parts, are those with the strongest signals and a random draw of the rest.
Would you mind labelling by glycan array binding signal (z-score)? At or over -0.1 is t, under is f.

Exercise: Record Gal 8 (Homo sapiens) (protein) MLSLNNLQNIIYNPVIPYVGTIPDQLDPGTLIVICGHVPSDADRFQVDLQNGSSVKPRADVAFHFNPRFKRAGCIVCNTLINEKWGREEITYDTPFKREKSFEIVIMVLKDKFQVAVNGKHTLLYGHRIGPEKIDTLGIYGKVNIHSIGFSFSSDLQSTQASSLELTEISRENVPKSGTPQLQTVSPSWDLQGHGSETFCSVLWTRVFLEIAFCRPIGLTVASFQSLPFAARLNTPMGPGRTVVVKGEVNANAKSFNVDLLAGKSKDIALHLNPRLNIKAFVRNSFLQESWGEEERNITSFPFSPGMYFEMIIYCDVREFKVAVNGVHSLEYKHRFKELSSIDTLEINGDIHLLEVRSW ; criterion: glycan array binding signal (z-score) no lower than -0.1. Met?
Key: f

Exercise: Given LcH (Lens culinaris), P02870 (protein) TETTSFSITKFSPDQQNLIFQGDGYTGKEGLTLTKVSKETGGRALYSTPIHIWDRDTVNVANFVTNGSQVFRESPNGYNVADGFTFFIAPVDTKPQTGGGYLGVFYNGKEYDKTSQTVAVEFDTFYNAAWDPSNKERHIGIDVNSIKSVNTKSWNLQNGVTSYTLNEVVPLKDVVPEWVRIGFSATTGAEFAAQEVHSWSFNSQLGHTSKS , state whether its glycan array binding signal (z-score) is at least -0.1.
Key: f

Exercise: Form field: glycan array binding signal (z-score) at least -0.1? Entry: PpFlo1 (Pichia pastoris) (protein) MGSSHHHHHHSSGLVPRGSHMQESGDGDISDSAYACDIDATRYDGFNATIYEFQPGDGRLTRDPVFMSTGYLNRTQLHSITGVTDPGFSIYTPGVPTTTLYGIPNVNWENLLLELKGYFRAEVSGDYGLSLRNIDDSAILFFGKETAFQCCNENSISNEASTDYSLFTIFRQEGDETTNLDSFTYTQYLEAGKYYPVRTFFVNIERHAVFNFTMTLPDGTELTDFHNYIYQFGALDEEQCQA
Key: f

Exercise: Please indicate if the recorded glycan array binding signal (z-score) for HHA (Hippeastrum hybrid) (protein) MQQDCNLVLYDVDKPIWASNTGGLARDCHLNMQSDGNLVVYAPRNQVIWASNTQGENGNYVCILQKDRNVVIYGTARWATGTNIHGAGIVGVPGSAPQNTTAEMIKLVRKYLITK meets or exceeds -0.1.
Key: t

Exercise: Given the entry Microvirin-2 (Microcystis aeruginosa) (protein) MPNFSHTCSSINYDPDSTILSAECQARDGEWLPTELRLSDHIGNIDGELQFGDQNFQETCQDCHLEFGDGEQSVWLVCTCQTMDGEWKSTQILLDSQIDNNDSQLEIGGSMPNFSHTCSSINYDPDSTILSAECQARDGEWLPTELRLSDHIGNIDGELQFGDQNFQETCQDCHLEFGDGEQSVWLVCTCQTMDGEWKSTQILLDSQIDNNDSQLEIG , answer whether its glycan array binding signal (z-score) meets or surpasses -0.1.
Key: f

New cases:
Exercise: Dear colleague, could you confirm whether SalT (Orysata sativa) (protein) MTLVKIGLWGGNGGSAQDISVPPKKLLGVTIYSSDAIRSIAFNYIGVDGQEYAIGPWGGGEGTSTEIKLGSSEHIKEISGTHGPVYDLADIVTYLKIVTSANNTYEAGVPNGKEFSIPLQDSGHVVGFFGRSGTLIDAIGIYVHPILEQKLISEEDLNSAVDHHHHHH has glycan array binding signal (z-score) at or above -0.1?
Key: t
